Data credit: ChEMBL document CHEMBL3865852

Experiment: AUC (0 to 6 hrs) in Wistar rat at 10 mg/kg, po administered via gavage
Assay type: ADME, organism-based
Design: time < 6 hr, dose 10 mg/kg, route oral
Details: in vivo

Structure	AUC(0-t) at 6 h
CC[C@H](C)[C@H](NC(=O)[C@H](CC1CCCCC1)NC(=O)c1ccno1)C(=O)N1CCC(c2ccccc2)CC1	1960 ng·h/mL

----------
Target: Proteinase-activated receptor 2 (Homo sapiens)
Assay: Agonist activity at PAR2 in human HT-29 cells assessed as increase in intracellular calcium release at 10 uM incubated for 30 mins measured for 60 secs by Fluo-3 AM dye based FLIPR assay relative to 2f-LIGRLO-NH2
Format: functional, cell-based
Metric: Activity

Compound	Reported value
CC[C@H](C)[C@H](NC(=O)[C@H](CC1CCCCC1)NC(=O)c1ccno1)C(=O)N1CCc2cc(OC)c(OC)cc2C1	65%
NC(=O)C[C@H](NC(=O)[C@H](CC1CCCCC1)NC(=O)c1ccno1)C(=O)N1CCC2(C=Cc3ccccc32)CC1	53 to 81%
CC[C@H](C)[C@H](NC(=O)[C@H](CC1CCCCC1)NC(=O)c1ccno1)C(=O)N1CCN(c2ccc(F)cc2)CC1	30 to 50%
NCC[C@H](NC(=O)[C@H](CC1CCCCC1)NC(=O)c1ccno1)C(=O)N1CCC2(C=Cc3ccccc32)CC1	11%
O=C(N[C@@H](CC1CCCCC1)C(=O)N[C@@H](Cc1cnc[nH]1)C(=O)N1CCC2(C=Cc3ccccc32)CC1)c1ccno1	53 to 81%
C[C@@H](O)[C@H](NC(=O)[C@H](CC1CCCCC1)NC(=O)c1ccno1)C(=O)N1CCC2(C=Cc3ccccc32)CC1	53 to 81%
CC[C@H](C)[C@H](NC(=O)[C@H](CC1CCCCC1)NC(=O)c1ccno1)C(=O)N1CCC2(CC1)c1ccccc1C1OC12 (stereo partly drawn)	65%
CC[C@H](C)[C@H](NC(=O)[C@H](CC1CCCCC1)NC(=O)c1ccno1)C(=O)N1CCC2(CC1)CC(=O)c1ccccc1O2	62 to 70%

----------
Experiment: Stability in Wistar rat plasma at 10 uM measured up to 3 hrs by LC/MS/MS analysis
Format: ADME, cell-free
Conditions: read-out: Stability
Entries and their remaining at 3 h, 10 µM

Structure	remaining at 3 h, 10 µM
CC[C@H](C)[C@H](NC(=O)[C@H](CC1CCCCC1)NC(=O)c1cc(N)no1)C(=O)N1CCC2(C=Cc3ccccc32)CC1	> 75%
CC[C@H](C)[C@H](NC(=O)[C@H](CC1CCCCC1)NC(=O)c1ccno1)C(=O)N1CCC2(C=Cc3ccccc32)CC1	> 75%
CC[C@H](C)[C@H](NC(=O)[C@H](CC1CCCCC1)NC(=O)c1ccno1)C(=O)N1CCC(c2ccccc2)CC1	> 75%

----------
Target: Proteinase-activated receptor 2 (Homo sapiens, UniProt P55085)
Sequence (P55085 whole entry): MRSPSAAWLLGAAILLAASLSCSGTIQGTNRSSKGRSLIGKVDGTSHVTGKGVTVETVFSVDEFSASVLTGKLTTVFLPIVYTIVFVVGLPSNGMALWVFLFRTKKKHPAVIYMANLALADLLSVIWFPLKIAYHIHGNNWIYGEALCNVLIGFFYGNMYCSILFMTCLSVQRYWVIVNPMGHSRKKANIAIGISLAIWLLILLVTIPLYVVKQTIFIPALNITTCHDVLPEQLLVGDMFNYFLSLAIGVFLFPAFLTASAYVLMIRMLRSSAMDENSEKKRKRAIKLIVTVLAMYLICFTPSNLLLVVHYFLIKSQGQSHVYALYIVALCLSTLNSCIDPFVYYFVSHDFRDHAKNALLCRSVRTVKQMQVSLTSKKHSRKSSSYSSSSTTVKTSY
Assay: Antagonist activity at PAR2 in human HT-29 cells assessed as inhibition of 2f-LIGRLO-NH2-stimulated intracellular calcium release preincubated for 30 mins followed by 2f-LIGRLO-NH2 stimulation measured for 60 sec by Fluo-3 AM dye based FLIPR assay
Type: functional, cell-based
Conditions: read-out: IC50
Each record here notes measured IC50.

Structure	IC50
CC[C@H](C)[C@H](NC(=O)[C@H](CC1CCCCC1)NC(=O)c1c[nH]cn1)C(=O)N1CCC2(C=Cc3ccccc32)CC1	3.1 µM
CC[C@H](C)[C@H](NC(=O)[C@H](CC1CCCCC1)NC(=O)c1ccno1)C(=O)N1CCC2(C=Cc3ccccc32)CC1	1.1 to 1.7 µM
CC[C@H](C)[C@H](NC(=O)[C@H](CC1CCCCC1)NC(=O)c1cc(CN)no1)C(=O)N1CCC2(C=Cc3ccccc32)CC1	8.9 µM
CC[C@H](C)[C@H](NC(=O)[C@H](CC1CCCCC1)NC(=O)c1ccno1)C(=O)N1CCC2(CCc3ccccc3O2)CC1	1.9 µM
